assay: Induction of HNO release per mol of compound in 0.6 mL MeOH and 0.2 mL of 1 M NaOH after 24 hr by gas chromatographic analysis; type: physicochemical
Values of Activity greater than or equal to 7% map to satisfied; values below map to not satisfied.

- COMPOUND: "CC(C)Cc1ccc(C(C)C(=O)OCCS(=O)(=O)NO)cc1 (stereo unspecified)"
  ANSWER_LABEL: "satisfied"
- COMPOUND: "COc1ccc2c(c1)c(CC(=O)OCCS(=O)(=O)NO)c(C)n2C(=O)c1ccc(Cl)cc1"
  ANSWER_LABEL: "not satisfied"
- COMPOUND: "COc1ccc2cc([C@H](C)C(=O)OCCS(=O)(=O)NO)ccc2c1"
  ANSWER_LABEL: "satisfied"
- COMPOUND: "O=C(Cc1ccccc1)OCCS(=O)(=O)NO"
  ANSWER_LABEL: "satisfied"
- COMPOUND: "CONS(=O)(=O)CCOC(=O)C(C)c1ccc(CC(C)C)cc1 (stereo unspecified)"
  ANSWER_LABEL: "not satisfied"
